- Test details: Antiinflammatory activity in human synovial fibroblasts assessed as inhibition of IL-1-beta-stimulated IL8 production treated 1 hr before IL1-beta challenge measured after 18 hrs by ELISA
- Format: functional
Reported property: IC50

- Compound smiles: "C[C@H]1CN(c2cc(C(=O)Nc3ccc4c(c3)-c3c(c(C(N)=O)nn3-c3ccc(F)cc3)CC4)c(Cl)cn2)CCN1"
  IC50: "1.32 µM"
- Compound smiles: "NC(=O)c1nn(-c2ccc(F)cc2)c2c1CCc1ccc(NC(=O)c3ccnc(N4CCOCC4)c3)cc1-2"
  IC50: "> 5 µM"
- Compound smiles: "CNc1ncccc1C(=O)Nc1ccc2c(c1)-c1c(c(C(N)=O)nn1-c1ccc3c(c1)OCO3)CC2"
  IC50: "3.37 µM"

Q) Suppose we examine the compound "CN(C)CCNc1cc(C(=O)Nc2ccc3c(c2)-c2c(c(C(N)=O)nn2-c2ccc(F)cc2)CC3)c(Cl)cn1" ; what IC50 value has been reported?
A) 4.72 µM

Q) Queued: "CN1CCN(c2cc(C(=O)Nc3ccc4c(c3)-c3c(c(C(N)=O)nn3-c3ccc(F)cc3)CC4)ccn2)CC1"
A) > 5 µM

Q) Queued: "NC(=O)c1nn(-c2ccc(F)cc2)c2c1CCc1ccc(NC(=O)c3cc(N4CCNCC4)ncc3Cl)cc1-2"
A) 2.47 µM

Q) Queued: "CN1CCN(c2ccc(Cl)c(C(=O)Nc3ccc4c(c3)-c3c(c(C(N)=O)nn3-c3ccc5c(c3)OCO5)CC4)n2)CC1"
A) 4.42 µM

Q) Queued: "NC(=O)c1nn(-c2ccc(F)cc2)c2c1CCc1ccc(NC(=O)c3nc(N4CCOCC4)ccc3Cl)cc1-2"
A) 3.04 µM

Q) Queued: "CN1CCN(c2ccc(Cl)c(C(=O)Nc3ccc4c(c3)-c3c(c(C(N)=O)nn3-c3ccc(F)cc3)CC4)n2)CC1"
A) 4.83 µM

Q) Queued: "CC(C)N1CCN(c2cc(C(=O)Nc3ccc4c(c3)-c3c(c(C(N)=O)nn3-c3ccc(F)cc3)CC4)c(Cl)cn2)CC1"
A) 1.49 µM

Q) Queued: "NC(=O)c1nn(-c2ccc3c(c2)OCO3)c2c1CCc1ccc(NC(=O)c3cc(N4CCOCC4)ncc3Cl)cc1-2"
A) 0.849 µM

Q) Queued: "CN1CCN(c2cc(C(=O)Nc3ccc4c(c3)-c3c(c(C(N)=O)nn3-c3ccc(F)cc3)CC4)c(Cl)cn2)CC1"
A) 0.94 µM

* * *

- Target system: Inhibitor of nuclear factor kappa-B kinase subunit alpha (Homo sapiens)
- Sequence (O15111 whole entry): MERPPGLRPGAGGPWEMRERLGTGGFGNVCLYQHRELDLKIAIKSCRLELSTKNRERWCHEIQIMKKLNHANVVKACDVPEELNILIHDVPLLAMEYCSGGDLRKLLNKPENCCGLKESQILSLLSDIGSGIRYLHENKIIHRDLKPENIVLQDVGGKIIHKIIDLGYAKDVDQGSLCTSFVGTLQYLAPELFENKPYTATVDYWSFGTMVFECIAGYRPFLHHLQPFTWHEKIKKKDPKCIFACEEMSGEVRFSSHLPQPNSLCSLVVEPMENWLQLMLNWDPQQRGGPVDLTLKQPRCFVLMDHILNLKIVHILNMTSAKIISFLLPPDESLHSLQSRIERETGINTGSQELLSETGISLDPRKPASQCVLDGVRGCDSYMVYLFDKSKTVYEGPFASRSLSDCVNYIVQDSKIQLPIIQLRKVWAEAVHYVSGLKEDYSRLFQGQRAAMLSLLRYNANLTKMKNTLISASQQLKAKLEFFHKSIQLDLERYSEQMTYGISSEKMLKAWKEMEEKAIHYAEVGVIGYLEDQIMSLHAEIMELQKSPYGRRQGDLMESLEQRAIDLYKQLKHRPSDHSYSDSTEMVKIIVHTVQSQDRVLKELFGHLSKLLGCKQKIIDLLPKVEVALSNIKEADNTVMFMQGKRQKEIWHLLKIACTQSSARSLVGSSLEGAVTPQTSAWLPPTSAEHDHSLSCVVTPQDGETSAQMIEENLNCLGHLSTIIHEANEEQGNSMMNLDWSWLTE
- Test details: Inhibition of IKK1
Reported property: pIC50
Remember the convention: pIC50 equals -log10 of concentration in molar.

Q) Suppose we examine the compound "CN1CCN(c2cc(C(=O)Nc3ccc4c(c3)-c3c(c(C(N)=O)nn3-c3ccc(F)cc3)CC4)c(Cl)cn2)CC1" ; what pIC50 value has been reported?
A) 4.85

* * *

The reader will find reported pIC50 values listed item by item below.
- Test details: Antiinflammatory activity in human synovial fibroblasts assessed as inhibition of IL-1-beta-stimulated IL8 production treated 1 hr before IL1-beta challenge measured after 18 hrs by ELISA
- Assay type: functional
Remember the convention: pIC50 equals -log10 of concentration in molar.

The cases that follow already have their pIC50 on record.
- Compound smiles: "NC(=O)c1nn(-c2ccc(F)cc2)c2c1CCc1ccc(NC(=O)c3cccnc3Cl)cc1-2"
  pIC50: 4.92
- Compound smiles: "NC(=O)c1nn(-c2ccc(F)cc2)c2c1CCc1ccc(NC(=O)c3cc(N4CCOCC4)ncc3Cl)cc1-2"
  pIC50: 5.67
- Compound smiles: "CN1CCN(c2cc(C(=O)Nc3ccc4c(c3)-c3c(c(C(N)=O)nn3-c3ccc5c(c3)OCO5)CC4)c(Cl)cn2)CC1"
  pIC50: 6.20
- Compound smiles: "C[C@@H]1CN(c2cc(C(=O)Nc3ccc4c(c3)-c3c(c(C(N)=O)nn3-c3ccc(F)cc3)CC4)c(Cl)cn2)C[C@H](C)N1C"
  pIC50: 5.26
- Compound smiles: "C[C@@H]1CN(c2cc(C(=O)Nc3ccc4c(c3)-c3c(c(C(N)=O)nn3-c3ccc(F)cc3)CC4)c(Cl)cn2)CCN1"
  pIC50: 5.40
- Compound smiles: "C[C@@H]1CN(c2cc(C(=O)Nc3ccc4c(c3)-c3c(c(C(N)=O)nn3-c3ccc(F)cc3)CC4)c(Cl)cn2)C[C@H](C)N1"
  pIC50: 5.07
- Compound smiles: "CN(C)CCN(C)c1cc(C(=O)Nc2ccc3c(c2)-c2c(c(C(N)=O)nn2-c2ccc(F)cc2)CC3)c(Cl)cn1"
  pIC50: 5.38
- Compound smiles: "NC(=O)c1nn(-c2ccc3c(c2)OCO3)c2c1CCc1ccc(NC(=O)c3cccnc3Cl)cc1-2"
  pIC50: 5.30
- Compound smiles: "CN1CCCN(c2cc(C(=O)Nc3ccc4c(c3)-c3c(c(C(N)=O)nn3-c3ccc(F)cc3)CC4)c(Cl)cn2)CC1"
  pIC50: 5.63
- Compound smiles: "C[C@H]1CN(c2cc(C(=O)Nc3ccc4c(c3)-c3c(c(C(N)=O)nn3-c3ccc(F)cc3)CC4)c(Cl)cn2)CCN1C"
  pIC50: 5.88

Q) Suppose we examine the compound "CNc1ccc(Cl)c(C(=O)Nc2ccc3c(c2)-c2c(c(C(N)=O)nn2-c2ccc4c(c2)OCO4)CC3)n1" ; what pIC50 value has been reported?
A) 5.24

Q) Queued: "COCCN1CCN(c2cc(C(=O)Nc3ccc4c(c3)-c3c(c(C(N)=O)nn3-c3ccc(F)cc3)CC4)c(Cl)cn2)CC1"
A) 5.99

Q) Queued: "NC(=O)c1nn(-c2ccc3c(c2)OCO3)c2c1CCc1ccc(NC(=O)c3cc(N4CCNCC4)ncc3Cl)cc1-2"
A) 5.73

Q) Queued: "NC(=O)c1nn(-c2ccc(F)cc2)c2c1CCc1ccc(NC(=O)c3cc(N4CCCNCC4)ncc3Cl)cc1-2"
A) 5.71

Q) Queued: "C[C@@H]1CN(c2cc(C(=O)Nc3ccc4c(c3)-c3c(c(C(N)=O)nn3-c3ccc(F)cc3)CC4)c(Cl)cn2)CCN1C"
A) 5.66

* * *

The reader will find reported IC50 values listed item by item below.
- Target system: Inhibitor of nuclear factor kappa-B kinase subunit beta (Homo sapiens, UniProt O14920)
- Sequence (O14920 whole entry): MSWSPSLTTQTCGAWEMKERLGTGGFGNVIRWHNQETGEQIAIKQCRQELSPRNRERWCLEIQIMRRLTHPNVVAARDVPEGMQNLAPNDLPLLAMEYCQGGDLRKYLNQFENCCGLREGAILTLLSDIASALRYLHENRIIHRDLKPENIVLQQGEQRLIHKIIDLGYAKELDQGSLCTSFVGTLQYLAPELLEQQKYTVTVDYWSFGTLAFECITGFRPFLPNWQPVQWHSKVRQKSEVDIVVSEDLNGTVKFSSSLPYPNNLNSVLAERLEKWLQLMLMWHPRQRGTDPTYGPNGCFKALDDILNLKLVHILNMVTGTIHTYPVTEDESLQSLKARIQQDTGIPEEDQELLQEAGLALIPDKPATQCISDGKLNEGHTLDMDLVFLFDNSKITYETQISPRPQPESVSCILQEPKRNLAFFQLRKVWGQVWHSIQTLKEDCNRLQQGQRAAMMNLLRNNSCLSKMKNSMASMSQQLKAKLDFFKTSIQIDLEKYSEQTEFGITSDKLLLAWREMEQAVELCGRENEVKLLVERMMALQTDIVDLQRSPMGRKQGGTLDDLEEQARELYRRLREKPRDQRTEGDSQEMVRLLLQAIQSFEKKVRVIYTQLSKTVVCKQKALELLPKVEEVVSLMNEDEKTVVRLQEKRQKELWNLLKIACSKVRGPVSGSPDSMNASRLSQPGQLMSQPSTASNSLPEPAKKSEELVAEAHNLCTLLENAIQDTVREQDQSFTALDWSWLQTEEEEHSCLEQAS
- Test details: Inhibition of human recombinant IKK2-mediated transfer of [gamma33P]ATP to biotinylated IkappaBalpha after 30 mins by scintillation counting
The figure you give is taken to be in nM; do not add the unit.

- Compound smiles: "CN1CCN(c2cc(C(=O)Nc3ccc4c(c3)-c3c(c(C(N)=O)nn3-c3ccc5c(c3)OCO5)CC4)c(Cl)cn2)CC1"
  Target system: "Inhibitor of nuclear factor kappa-B kinase subunit beta (Homo sapiens, UniProt O14920)"
  Reported property: "IC50"
  Value measured: 33
- Compound smiles: "NC(=O)c1nn(-c2ccc3c(c2)OCO3)c2c1CCc1ccc(NC(=O)c3cccnc3N3CCOCC3)cc1-2"
  Target system: "Inhibitor of nuclear factor kappa-B kinase subunit beta (Homo sapiens, UniProt O14920)"
  Reported property: "IC50"
  Value measured: 5910
- Compound smiles: "C[C@@H]1CN(c2cc(C(=O)Nc3ccc4c(c3)-c3c(c(C(N)=O)nn3-c3ccc(F)cc3)CC4)c(Cl)cn2)C[C@H](C)N1C"
  Target system: "Inhibitor of nuclear factor kappa-B kinase subunit beta (Homo sapiens, UniProt O14920)"
  Reported property: "IC50"
  Value measured: 98
- Compound smiles: "NC(=O)c1nn(-c2ccc3c(c2)OCO3)c2c1CCc1ccc(NC(=O)c3cc(N4CCOCC4)ncc3Cl)cc1-2"
  Target system: "Inhibitor of nuclear factor kappa-B kinase subunit beta (Homo sapiens, UniProt O14920)"
  Reported property: "IC50"
  Value measured: 90
- Compound smiles: "NC(=O)c1nn(-c2ccc(F)cc2)c2c1CCc1ccc(NC(=O)c3cc(N4CCNCC4)ncc3Cl)cc1-2"
  Target system: "Inhibitor of nuclear factor kappa-B kinase subunit beta (Homo sapiens, UniProt O14920)"
  Reported property: "IC50"
  Value measured: 10
- Compound smiles: "C[C@H]1CN(c2cc(C(=O)Nc3ccc4c(c3)-c3c(c(C(N)=O)nn3-c3ccc(F)cc3)CC4)c(Cl)cn2)CCN1"
  Target system: "Inhibitor of nuclear factor kappa-B kinase subunit beta (Homo sapiens, UniProt O14920)"
  Reported property: "IC50"
  Value measured: 51

Here is another compound to look at.
Q) Suppose we examine the compound "C[C@@H]1CN(c2cc(C(=O)Nc3ccc4c(c3)-c3c(c(C(N)=O)nn3-c3ccc(F)cc3)CC4)c(Cl)cn2)C[C@H](C)N1" ; what IC50 value has been reported?
A) 46
